metric: pKi
Convention used: pKi is expressed as -log10 of the molar concentration.

Ask | Name the recorded pKi of `Nc1ncnc2c1ncn2[C@@H]1O[C@H](CO)[C@@H](O)[C@@H]1O` , assay system Uridine phosphorylase 1 (Homo sapiens, UniProt Q16831).
Reply | 3.41
